Source listed as ChEMBL document CHEMBL3627617.

Tested on: HUVEC
Assay: Antiproliferative activity against human HUVEC cells assessed as reduction in cell viability after 72 hrs by trypan blue assay
Format: functional
Measured Parameter: GI50 (nM)
Express the result in nM but write the number alone.

Chemical String | Measure Unit | GI50
Clc1ccc2c(c1)SCc1cnc(-c3ccccc3)nc1-2 | nM | 2300

Now consider the entry below.
For reference, reported GI50 for COc1ccc2c(c1)SCc1cnc(-c3ccccc3)nc1-2 stands at 2900

* * *

Property: IC50; scope: individual molecules
Molecular target: Vascular endothelial growth factor receptor 2 (Homo sapiens)
Sequence (P35968 whole entry): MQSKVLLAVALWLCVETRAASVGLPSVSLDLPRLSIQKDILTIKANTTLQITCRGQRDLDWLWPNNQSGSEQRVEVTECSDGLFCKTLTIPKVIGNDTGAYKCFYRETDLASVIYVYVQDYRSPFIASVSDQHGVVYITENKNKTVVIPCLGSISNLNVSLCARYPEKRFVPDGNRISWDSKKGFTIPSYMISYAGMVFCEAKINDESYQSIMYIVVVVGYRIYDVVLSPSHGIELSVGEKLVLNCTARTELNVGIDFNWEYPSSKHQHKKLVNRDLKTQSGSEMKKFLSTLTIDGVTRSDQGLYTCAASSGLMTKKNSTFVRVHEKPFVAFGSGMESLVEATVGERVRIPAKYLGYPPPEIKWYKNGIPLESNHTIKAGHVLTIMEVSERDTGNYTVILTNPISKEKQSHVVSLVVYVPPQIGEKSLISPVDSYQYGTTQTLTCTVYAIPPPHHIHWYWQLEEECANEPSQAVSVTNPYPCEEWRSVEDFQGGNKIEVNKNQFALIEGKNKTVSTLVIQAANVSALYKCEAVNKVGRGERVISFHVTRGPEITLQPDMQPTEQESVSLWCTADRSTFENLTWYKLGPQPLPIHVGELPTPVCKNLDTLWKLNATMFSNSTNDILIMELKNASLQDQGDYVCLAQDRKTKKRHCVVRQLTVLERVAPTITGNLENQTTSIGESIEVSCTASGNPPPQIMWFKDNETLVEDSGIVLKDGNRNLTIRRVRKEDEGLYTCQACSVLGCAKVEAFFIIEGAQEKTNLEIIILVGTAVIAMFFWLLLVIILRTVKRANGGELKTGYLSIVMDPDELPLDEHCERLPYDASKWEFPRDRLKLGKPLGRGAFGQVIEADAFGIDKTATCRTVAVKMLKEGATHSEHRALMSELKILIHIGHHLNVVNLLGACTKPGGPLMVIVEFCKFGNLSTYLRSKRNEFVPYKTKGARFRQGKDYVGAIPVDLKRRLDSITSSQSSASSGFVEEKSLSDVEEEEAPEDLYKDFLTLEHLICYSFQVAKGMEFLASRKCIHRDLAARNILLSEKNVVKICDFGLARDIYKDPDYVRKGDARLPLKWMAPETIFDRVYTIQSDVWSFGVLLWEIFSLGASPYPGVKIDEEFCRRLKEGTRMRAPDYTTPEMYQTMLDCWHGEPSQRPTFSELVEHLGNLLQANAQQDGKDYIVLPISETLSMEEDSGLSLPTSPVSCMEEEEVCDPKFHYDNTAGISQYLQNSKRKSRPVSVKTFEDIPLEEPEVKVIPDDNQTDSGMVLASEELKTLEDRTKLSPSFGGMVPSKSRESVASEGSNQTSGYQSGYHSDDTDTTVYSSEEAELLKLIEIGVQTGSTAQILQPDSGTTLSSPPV

Response field IC50 (Vascular endothelial growth factor receptor 2 (Homo sapiens)) for item Clc1ccc(Nc2ncc3c(n2)-c2ccccc2SC3)cc1 : > 50 µM

IC50 on Vascular endothelial growth factor receptor 2 (Homo sapiens) for COc1ccc(Nc2ncc3c(n2)-c2ccc(OC)cc2SC3)cc1 is 17.5 µM

Reading of IC50 for COc1ccc2c(c1)SCc1cnc(Nc3ccccc3)nc1-2 with Vascular endothelial growth factor receptor 2 (Homo sapiens): > 50 µM

Measured on Vascular endothelial growth factor receptor 2 (Homo sapiens), Clc1ccc(Nc2ncc3c(n2)-c2ccc(Cl)cc2SC3)cc1 has a documented IC50 of 5.6 µM

So the reported IC50 for Clc1ccc2c(c1)SCc1cnc(Nc3ccccc3)nc1-2 , on Vascular endothelial growth factor receptor 2 (Homo sapiens), turned out to be > 50 µM

Lab entry: Vascular endothelial growth factor receptor 2 (Homo sapiens) assay, molecule c1ccc(Nc2ncc3c(n2)-c2ccccc2SC3)cc1 , IC50 = 8.2 µM

Summary line: COc1ccc(Nc2ncc3c(n2)-c2ccc(Cl)cc2SC3)cc1 , Vascular endothelial growth factor receptor 2 (Homo sapiens), reported IC50 = > 50 µM

Measured on Vascular endothelial growth factor receptor 2 (Homo sapiens), COc1ccc2c(c1)SCc1cnc(Nc3ccc(Cl)cc3)nc1-2 has a documented IC50 of > 50 µM
